Answer each item with its documented GI50.
Tested on: LXFL 529
assay-overview: NCI tumour cell line growth inhibition, 48 h
Active and inactive are the calls of the source. Cut-off read from the data, not from the text of the source: active = GI50 up to about 1.1 µM and inactive = higher.

Query string: Given `Cn1c2c([N+](=O)[O-])[se]nc2c(=O)n1-c1ccc([N+](=O)[O-])cc1` , report its GI50 on LXFL 529.
Result string: 1.25 µM (inactive)

Query string: Output reported GI50 of the compound `CCNC(=O)C#CC(=O)NCC` on LXFL 529.
Result string: > 93.8 µM (inactive)

Query string: Determine reported GI50 for CCOC(=O)C1S/C(=N\c2ccc(Cl)cc2)N=C1C (stereo not drawn) ; test system: LXFL 529.
Result string: > 10 µM (inactive)

Attribution: ChEMBL document CHEMBL1201862
